# Tested on: HBV (HepG2 2.2.15, P5A cell line)
# run-description: Anti-HBV assay: HBV DNA in supernatants of HBV-producing cells, immunoaffinity capture, PCR and hybrid-capture detection
# Assay type: cell-based, Hepatitis B virus
# condition-label: read-out: IC50 (median inhibitory concentration, 50 percent decrease in HBV DNA); approximate IC50; HepG2 2.2.15, P5A cells; compound on days 1, 3, 5, 7
reported-endpoint: IC50 (nM)
Numeric answer only, unit nM assumed.

OC[C@@H]1C[C@H](n2c(Br)nc3cc(Cl)c(Cl)cc32)[C@@H](O)[C@H]1O yielded IC50 of 1300
